- protocol-summary: clinical
- condition-notes: human, in vivo, 225 mg, AUC0–12, arithmetic mean (SD)
assay-metric: AUC(0-t) (µM·h)
A number alone suffices; assume µM·h.

Value of AUC(0-t) reported for the compound `C=CCn1c(=O)c2cnc(Nc3ccc(N4CCN(C)CC4)cc3)nc2n1-c1cccc(C(C)(C)O)n1` is 12.7

---

- protocol-summary: clinical
- condition-notes: human, in vivo, Mean t½ h (SD)
Listing of recorded half-life by entry.
// return numeric value only (unit: h, not printed)

>  <molecule>
COc1ccc2[nH]c([S+]([O-])Cc3ncc(C)c(OC)c3C)nc2c1 (centres unmarked) [Omeprazole, omeprazole, reference compound]

>  <result-unit>
h

>  <quantitative-readout>
2

$$$$

# context switch: different molecule, same half-life
Notebook: `Cn1c(=O)[nH]c2ncn(C)c2c1=O` , half-life read as 7
